Assay name: Binding affinity to pig pancreatic cholesterol esterase
Design: species or system Sus scrofa
Observable: pKi
Expect pKi as a plain number equal to -log10 of the molar concentration.

{"columns": ["Molecule", "pKi"],
 "data": [
  ["Nc1ccc2c(Cl)c(OCCBr)oc(=O)c2c1", 4.59],
  ["O=c1oc(OCCC2CCCCC2)c(Cl)c2ccc([N+](=O)[O-])cc12", 6.15],
  ["O=c1oc(OCCBr)cc2ccc([N+](=O)[O-])cc12", 4.30],
  ["CCCCOc1oc(=O)c2ccccc2c1Cl", 5.19],
  ["O=C(c1c(OCCC2CCCCC2)oc(=O)c2ccccc12)C(F)(F)F", 4.14],
  ["O=c1oc(OCCCBr)c(Cl)c2ccc([N+](=O)[O-])cc12", 5.80]
]}

Lab book: pKi of O=c1oc(OCC2CCCC2)c(Cl)c2ccccc12 noted as 6.44

Lab book: pKi of O=c1oc(OCC2CCCCC2)c(Cl)c2ccccc12 noted as 5.74

Lab book: pKi of O=c1oc(OCCCCC2CCCCC2)c(Cl)c2ccccc12 noted as 7.96

Lab book: pKi of O=c1oc(OC2CCCCC2)c(Cl)c2ccccc12 noted as 5.92

Lab book: pKi of O=c1oc(OC2CCCC2)c(Cl)c2ccccc12 noted as 6.02

Lab book: pKi of O=c1oc(OCCC2CCCCC2)c(Cl)c2ccccc12 noted as 5.92

Lab book: pKi of O=c1oc(OCCCC2CCCC2)c(Cl)c2ccccc12 noted as 7.72

Lab book: pKi of CCCOc1oc(=O)c2ccccc2c1Cl noted as 5.44

Lab book: pKi of O=c1oc(OC2CCC(C3CCCCC3)CC2)c(Cl)c2ccccc12 (centres undefined) noted as 6.72

Lab book: pKi of O=c1oc(OCC2CCCCC2)c(Cl)c2ccc([N+](=O)[O-])cc12 noted as 5.24

Lab book: pKi of COc1oc(=O)c2cc([N+](=O)[O-])ccc2c1Cl noted as 4.72

Lab book: pKi of O=c1oc(OCC2CCCCC2)cc2ccc([N+](=O)[O-])cc12 noted as 4.27

Lab book: pKi of O=c1oc(OCCCC2CCCCC2)c(Cl)c2ccccc12 noted as 6.74

Origin of values: ChEMBL document CHEMBL1157173
